meta.source: paper PMC11766867

- protocolDetails: In vitro Caco-2 permeability assay
- Type: in vitro ADME, human
- testContext: human, Caco-2; read-out: Ratio Efflux Papp B-A/Papp A-B

{"compound": "CCOC(=O)Cc1csc(N/N=C(\\C)C(=O)O)n1 [RW3]", "efflux ratio at 180 min, 10 µg/mL": 0.76}

* * *

- protocolDetails: In vitro Caco-2 permeability assay
- Format: in vitro ADME, human
- testContext: human, Caco-2; apical−basolateral, 10 µg/mL, apical pH 6.8, basolateral pH 7.4, n = 3
propertyLabel: Papp A→B at 180 min, 10 µg/mL (×10⁻⁶ cm/s)

{"structureSmiles": "CCOC(=O)Cc1csc(N/N=C(\\C)C(=O)O)n1", "valueUnit": "×10⁻⁶ cm/s", "measurement": 23.1}
